The following compounds are shown together with reported pIC50 values.
Target: UniProt P03372
Sequence (P03372 whole entry): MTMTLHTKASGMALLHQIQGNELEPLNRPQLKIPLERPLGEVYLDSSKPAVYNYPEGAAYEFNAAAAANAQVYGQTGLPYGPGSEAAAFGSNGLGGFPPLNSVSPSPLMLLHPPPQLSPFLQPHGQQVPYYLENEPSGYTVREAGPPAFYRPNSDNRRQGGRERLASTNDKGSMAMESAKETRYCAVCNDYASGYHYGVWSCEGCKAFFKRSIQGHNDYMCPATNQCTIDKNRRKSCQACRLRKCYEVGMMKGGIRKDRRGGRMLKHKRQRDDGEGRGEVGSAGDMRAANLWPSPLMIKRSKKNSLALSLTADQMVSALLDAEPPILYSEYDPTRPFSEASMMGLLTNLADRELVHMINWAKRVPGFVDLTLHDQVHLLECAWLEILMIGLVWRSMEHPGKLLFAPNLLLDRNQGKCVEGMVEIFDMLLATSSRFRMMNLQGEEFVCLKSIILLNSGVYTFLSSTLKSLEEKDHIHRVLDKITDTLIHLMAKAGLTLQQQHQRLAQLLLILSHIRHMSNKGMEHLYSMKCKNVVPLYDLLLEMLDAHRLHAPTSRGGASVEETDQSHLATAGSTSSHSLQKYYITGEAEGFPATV
Assay: Displacement of fluorescent estrogen ligand from recombinant human ERalpha expressed in insect cells incubated for 2 hrs by polarization
Quick note: pIC50 values are minus log10 of concentrations in mol/L.

Below are worked cases with known answers.
> print(dat)
                                 mol.smiles  property.name  readout.value
1  CCN(CC)CCOc1ccc(Nc2c(-c3ccc(F)cc3)c(=O)oc3cc(O)ccc23)cc1          pIC50           5.36
2  COc1ccc(-c2c(Oc3ccc(OCCN4CCCCC4)cc3)c3ccc(OC)cc3oc2=O)cc1          pIC50           5.03
3  COc1ccc2c(Oc3ccc(OCCN4CCCCC4)cc3)c(-c3ccc(F)cc3)c(=O)oc2c1          pIC50           5.16
4  CN(C)CCOc1ccc(Oc2c(-c3ccc(F)cc3)c(=O)oc3cc(O)ccc23)cc1          pIC50           5.19
5  O=c1oc2cc(O)ccc2c(Nc2ccc(OCCN3CCCC3)cc2)c1-c1ccc(F)cc1          pIC50           5.34
6  O=c1oc2cc(O)ccc2c(Nc2ccc(OCCN3CCCCC3)cc2)c1-c1ccc(F)cc1          pIC50           5.41

Query compound follows.
Identify measured pIC50 corresponding to `CN(C)CCOc1ccc(Nc2c(-c3ccc(O)cc3)c(=O)oc3cc(O)ccc23)cc1`
5.09
